compounds and their reported solubility
assay.comment: Aqueous solubility of the compound
Field: numeric (µM). Do not append units.

// worked examples, solubility included
Param item = `COc1cc2c(Nc3cnc(NC(=O)c4ccccc4)nc3)ncnc2cc1OC[C@@H](O)CN1CCCCC1` ; retrieve measured solubility.
1500

Also `COc1cc2c(Nc3ccc(NC(=O)c4ccccc4)cc3)ncnc2cc1OCCCN1CCOCC1` , if possible.
2.5

From here, focus on the item given below.
Param item = `COc1cc2c(Nc3cnc(NC(=O)c4cccc(Cl)c4)nc3)ncnc2cc1OCCCN1CCCCC1` ; retrieve measured solubility.
3600

###

system.under.test: Aurora kinase A (Homo sapiens, UniProt O14965)
Sequence (O14965 whole entry): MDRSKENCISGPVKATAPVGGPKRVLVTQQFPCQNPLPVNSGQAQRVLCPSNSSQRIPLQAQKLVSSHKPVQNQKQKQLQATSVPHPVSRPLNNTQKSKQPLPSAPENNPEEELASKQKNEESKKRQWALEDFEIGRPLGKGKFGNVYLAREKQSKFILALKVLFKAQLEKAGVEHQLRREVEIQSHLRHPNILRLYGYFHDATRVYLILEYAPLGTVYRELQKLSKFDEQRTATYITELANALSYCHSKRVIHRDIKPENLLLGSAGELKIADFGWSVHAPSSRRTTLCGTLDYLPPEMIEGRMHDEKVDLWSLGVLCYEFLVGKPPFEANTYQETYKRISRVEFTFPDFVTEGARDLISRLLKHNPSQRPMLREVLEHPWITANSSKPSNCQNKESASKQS
value.type: log10(IC50) (log10 of the value in nM)
Reminder: these figures are log10 of reported IC50, in nM before transformation.

// worked examples, log10(IC50) included
Param item = `COc1cc2c(Nc3cnc(NC(=O)c4ccncc4)nc3)ncnc2cc1OCCCN1CCOCC1` ; retrieve measured log10(IC50).
2.84

Also `CCCN(CCC)S(=O)(=O)c1ccc(C(=O)Nc2ncc(Nc3ncnc4cc(OCCCN5CCOCC5)c(OC)cc34)cn2)cc1` , if possible.
3.59

Also `COc1cc2c(Nc3cnc(NC(=O)c4ccccc4)nc3)ncnc2cc1OCCCN1CCOCC1` , if possible.
0.48

Also `CCCCC(=O)Nc1ncc(Nc2ncnc3cc(OCCCN4CCOCC4)c(OC)cc23)cn1` , if possible.
1.23

From here, focus on the item given below.
Param item = `COc1cc2c(Nc3ncc(NC(=O)c4ccccc4)cn3)ncnc2cc1OCCCN1CCOCC1` ; retrieve measured log10(IC50).
2.80

Data credit: ChEMBL document CHEMBL1139004
